Target: SARS-CoV-2 spike protein on pseudotyped lentivirus (Wuhan Reference Pseudovirus) (SARS-CoV-2, UniProt P0DTC2 14-1273)
Experiment: cell-based or functional assay
measure: Pseudovirus neutralization IC50 (nM)
Reply with just the number (in nM).

>  <binder>
PP1113 MBP-5HVZ-PAPA-RN-29-H6 (VHH, Form: Dimer) VHH: QVQLVESGGGLVQPGGSLRLSCAASGYILSENLTAWFRQAPGKAREVVATVTSGDYTNYDDSVKGRFTISRDNAKNTVYLQMNSLKPEDTAVYYCAAGTSDWEVKWSHWGQGTQVTVSS

>  <Pseudovirus neutralization IC50, nM>
7.09

$$$$

Attention now shifts to the item below.
I am curious: what Pseudovirus neutralization IC50 value has been reported for PP1135 MBP-4B0F-PAPA-R5a-B7-H6 (VHH, Form: Heptamer) VHH: QVQLVESGGGLVQPGGSLRLSCAASGAFFSYGAIHWFRQAPGKQREEVAAITSGGSTGYADSVKGRFTISRDNAKNTVYLQMNSLKPEDTAVYYCNAGVVWLPSNAAYNLWGQGTQVTVSS ?
0.533

The reported numbers originate from patent US20240150440A1.
